Experiment Description: chemical genetic growth profiling, strain panel (AID 1159580);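 also: tested at 20 µM; growth read once vehicle control cultures reached saturation at 30 °C; 1 = growth at the plate median or of vehicle wells; lower values mean less growth of the strain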
Applied Conditions: S. cerevisiae deletion strains, growth OD, locus YNL233W, strain BNI4
The whole screen tested about 5,500 compounds, of which about 2,000 (36%) were called active. Inconclusive results (about 18%) are left out. Rule as the data show it: active = normalized growth mostly below about 0.91 (no sharp cut-off); inconclusive = no clear call, values can overlap the other calls; inactive = mostly above about 0.92. The list shows a part of the results.
Labels: active, inactive

COc1ccc2c(c1)OC/C(=C\c1ccc(OC)c(O)c1)C2=O | active
CC(=O)O[C@H]1C[C@@H](OC(C)=O)C(C)(C)C2CC(=O)[C@]3(C)C(CC[C@@]4(C)[C@H](C(=O)O)OC(=O)C5OC543)[C@]21C (stereo partly drawn) | inactive
O=C(O[C@@H]1Cc2c(O)cc(O)cc2O[C@@H]1c1cc(O)c(O)c(O)c1)c1cc(O)c(O)c(O)c1 | active
COc1ccc(OC)c(C(O)CNC(=O)CN)c1 (stereo not drawn) | inactive
CN1C2C[C@H](OC(=O)[C@H](CO)c3ccccc3)C[C@H]1[C@@H](O)C2 | inactive
COc1ccc(-c2coc3cc(OC)ccc3c2=O)cc1 | inactive
CC[C@@H](C(=O)C(C)[C@@H](O)[C@H](C)CCc1ccc(C)c(O)c1C(=O)O)C1OC(CC)(C2CC[C@](O)(CC)[C@H](C)O2)C[C@@H]1C (stereo partly drawn) | inactive
COc1ccc(-c2coc3cc(O)ccc3c2=O)c(OC)c1 | inactive
COc1ccc([C@H]2Oc3c(I)c(OC)cc(OC)c3C[C@@H]2O)cc1OC | inactive
N[C@@H](Cc1ccc(N(CCCl)CCCl)cc1)C(=O)O | inactive
CN1C2CCC1CC(OC(c1ccccc1)c1ccccc1N)C2 (stereo not drawn) | inactive
Oc1cc(O)c2c(c1)O[C@H](c1ccc(O)c(O)c1)[C@@H](O)C2 | inactive
COc1ccc(C(=O)CC(=O)O)c2c1C=CC(C)(C)O2 | inactive
Oc1cc(O)c2c(c1)O[C@H](c1ccc(O)c(O)c1)[C@H](O)C2 | inactive
OCC(O)CN1CCN(c2ccccc2)CC1 (stereo not drawn) | inactive
CNC(=O)O/N=C(\C)SC | inactive
Oc1ccc2c(c1)O[C@H](c1ccc(O)c(O)c1)[C@@H](O)C2 | inactive
NCCc1cnc[nH]1 | inactive
C=C[C@@](C)(O)CCC1C(=C)C[C@H](O)C2C(C)(C)CCCC12C (stereo partly drawn) | inactive
Clc1ccc(C(c2ccc(Cl)cc2)C(Cl)(Cl)Cl)cc1 | inactive
O=C(O)c1cc2cc(F)ccc2[nH]1 | inactive
C[C@]12CCC(=O)C=C1C=CC1C2CC[C@@]2(C)C1CC[C@@]21CCC(=O)O1 (stereo partly drawn) | inactive
C=CCc1ccc(OC(=O)c2ccccc2)c(OC)c1 | inactive
C[C@@H]1O[C@@H](O[C@H]2[C@H](Oc3cc(O)c4c(=O)cc(-c5ccc(O)cc5)oc4c3)O[C@H](CO)[C@@H](O)[C@@H]2O)[C@H](O)[C@H](O)[C@H]1O | inactive
Cc1ccc(S(=O)(=O)NC(=O)NN2CCCCCC2)cc1 | inactive
CN(C)CCOC(c1ccc(Cl)cc1)c1ccccn1 (stereo not drawn) | inactive
O=C1C(Cl)=C(Cl)C(=O)C(Cl)=C1Cl | active
Oc1cc(O)c2c(c1)O[C@H](c1cc(O)c(O)c(O)c1)[C@H](O)C2 | inactive
Cn1c(=O)c2c(ncn2CC(O)CO)n(C)c1=O (stereo not drawn) | inactive
CCC[C@H](N[C@@H](C)C(=O)N1[C@H](C(=O)O)C[C@@H]2CCCC[C@@H]21)C(=O)OCC | inactive
CCCCC[C@H]1C(=O)O[C@H](C)[C@H](NC(=O)c2cccc(NC=O)c2O)C(=O)O[C@@H](C)[C@@H]1OC(=O)CC(C)C | inactive
C#CCN(C)Cc1ccccc1 | inactive
CCCCCCC(C)OC(=O)COc1cc(Cl)c(Cl)cc1Cl (stereo not drawn) | inactive

----------
Experiment Description: chemical genetic growth profiling, strain panel (AID 1159580)
Applied Conditions: S. cerevisiae deletion strains, growth OD, locus YNL298W, strain CLA4 (second series), active compounds read low
Hit rate of the full screen: of about 5,500 compounds, about 2,000 (36%) were called active. About 18% were inconclusive and are not listed. The list shows a part of the results.
Measured normalized growth, listed per entry for reference.
Parameter Measured: normalized growth

COC(=O)CCCCCCCC(=O)Nc1ccc(Cl)cc1 | 1.01
Cn1c2c(c(=O)n(C)c1=O)CN(CCCCCCO)CN2 | 1.1
S=C1NCN(CCN2CCCC2)CN1 | 0.987
O=C(O)c1cncc(C#Cc2ccccc2)c1 | 0.991
COc1ccc(/C=C2\CC/C(=C\c3ccc(OC)c(OC)c3)C2=O)cc1OC | 0.987
O=C1c2ccccc2C(=O)C1(c1ccccc1)[N+](=O)[O-] | 0.956
C/C(=C\C(=O)Nc1ccc(F)cc1)Nc1ccc(F)cc1 | 1
Cc1ccc(-c2csc(CC#N)n2)cc1C | 0.882
C/C(=N/O)c1sc2nc(C(F)(F)F)nn2c1C | 0.99

----------
Experiment Description: chemical genetic growth profiling, strain panel (AID 1159580);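 also: tested at 20 µM; growth read once vehicle control cultures reached saturation at 30 °C; 1 = growth at the plate median or of vehicle wells; lower values mean less growth of the strain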
Applied Conditions: S. cerevisiae deletion strains, growth OD, locus YKR026C, strain gcn3, active compounds read low
The campaign covered roughly 5,500 compounds. About 2,000 (36%) were called active. Not shown: some 18% with an inconclusive outcome. This is one part of the list.
Parameter Measured: normalized growth

C#CCCCCCCCCCCCc1ccco1 | 0.964 (inactive)
CNCCC(Oc1ccc(C(F)(F)F)cc1)c1ccccc1 (centres undefined) | 0.983 (inactive)
C[C@H]1COc2c(N3CCN(C)CC3)c(F)cc3c(=O)c(C(=O)O)cn1c23 | 1.02 (inactive)
CC1CCc2cc(F)cc3c(=O)c(C(=O)O)cn1c23 (centres undefined) | 0.989 (inactive)

----------
Measured normalized growth, listed per entry for reference.
Experiment Description: chemical genetic growth profiling, strain panel (AID 1159580);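 also: tested at 20 µM; growth read once vehicle control cultures reached saturation at 30 °C; 1 = growth at the plate median or of vehicle wells; lower values mean less growth of the strain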
Applied Conditions: S. cerevisiae deletion strains, growth OD, locus YFL009W, strain cdc4, active compounds read low
About 2,000 (36%) of roughly 5,500 compounds were called active. Another 18% or so got no clear call; they are omitted. This is one part of the list.
Parameter Measured: normalized growth

O=C(Nc1cccc(C(F)(F)F)c1)c1cncc(C#Cc2ccccc2)c1 | 0.968
CCOC(=O)c1ccc2nc(N=CNO)sc2c1 | 0.938
Cc1ccc(S(=O)(=O)NC(=O)Nc2ccc(Sc3ccccc3)nc2Sc2ccccc2)cc1 | 0.957
CC(C)c1ccc(COC(=O)Nc2ccc(CSc3ccc(Cl)cc3)o2)cc1 | 0.979
CC1(C)CC(=O)C=C(Sc2nc3ccccc3o2)C1 | 0.953
Cc1cc(C(=O)NNS(=O)(=O)c2ccc(F)c(Cl)c2)nn1-c1c(Cl)cc(Cl)cc1Cl | 0.982
CCOC(=O)C1C(c2c(F)cccc2Cl)C(C(=O)OCC)C(O)(C(F)(F)F)NC1(O)C(F)(F)F (configuration not stated) | 0.991

----------
Experiment Description: chemical genetic growth profiling, strain panel (AID 1159580);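 also: tested at 20 µM; growth read once vehicle control cultures reached saturation at 30 °C; 1 = growth at the plate median or of vehicle wells; lower values mean less growth of the strain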
Applied Conditions: S. cerevisiae deletion strains, growth OD, locus YHR027C, strain rpn1, active compounds read low
Out of some 5,500 compounds screened, about 2,000 (36%) were called active. About 18% were inconclusive and are not listed. This is one part of the list.
Measured normalized growth, listed per entry for reference.
Parameter Measured: normalized growth

C[C@H]1COc2c(N3CCN(C)CC3)c(F)cc3c(=O)c(C(=O)O)cn1c23 | 1.01
CCN1CCCC(OC(=O)C(c2ccccc2)c2ccccc2)C1 (centres undefined) | 0.986
CCn1cc(C(=O)O)c(=O)c2cc(F)c(N3CCNC(C)C3)c(F)c21 (centres undefined) | 1
CC(=O)Oc1cc(OC(C)=O)c2c(c1)O[C@H](c1ccc(OC(C)=O)c(OC(C)=O)c1)[C@@H](OC(C)=O)C2 | 1
O=C(Oc1cc(O)cc2c1C[C@@H](OC(=O)c1cc(O)c(O)c(O)c1)[C@@H](c1cc(O)c(O)c(O)c1)O2)c1cc(O)c(O)c(O)c1 | 1.02
COc1ccc(C2CNC(=O)C2)cc1OC1CCCC1 (centres undefined) | 1.01
COc1ccc(C(=O)CC(=O)O)c2c1C=CC(C)(C)O2 | 0.982
O=S(=O)(O)CCS | 1.01
CC1CCc2cc(F)cc3c(=O)c(C(=O)O)cn1c23 (centres undefined) | 0.985
COc1c(N2CCNC(C)C2)c(F)cc2c(=O)c(C(=O)O)cn(C3CC3)c12 (centres undefined) | 0.984
CCC[C@H](N[C@@H](C)C(=O)N1[C@H](C(=O)O)C[C@@H]2CCCC[C@@H]21)C(=O)OCC | 1.02
Cn1c(=O)c2c(ncn2CC(O)CO)n(C)c1=O (centres undefined) | 0.981
O=C(Oc1cc(OC(=O)c2ccccc2)c2c(c1)O[C@H](c1ccc(OC(=O)c3ccccc3)c(OC(=O)c3ccccc3)c1)[C@@H](OC(=O)c1ccccc1)C2)c1ccccc1 | 1
CN(C)CCCC1(c2ccc(F)cc2)OCc2cc(C#N)ccc21 (centres undefined) | 0.985

Every entry's value here was drawn from PubChem BioAssay AID1159580.
